# protocolDescription: Primary salt screen (purity, crystallinity and stability of precipitated salts)
# measurementConditions: 20 mg free base in 10% (aq.) THF, 1.1 eq. acid in ethanol, tert-butyl methyl ether to induce precipitation
measurementKind: Salt (primary screen grade: purity, crystallinity and stability)

>>> measurement("O=C(O)CCC(=O)O [Succinic]")
"+++"
>>> measurement("Cl [Hydrochloric]")
"+++"
>>> measurement("O=S(=O)(O)c1cccc2c(S(=O)(=O)O)cccc12 [Naphthalene-1,5-disulfonic]")
"+"
>>> measurement("O=C(O)CC(=O)O [Malonic]")
"−"

Where these numbers come from: patent US9555023B2
